Assay: Effect of a single 2 g dose of SYM-1219 on the plasma pharmacokinetics of EE2 and NET in healthy female subjects
Type: in vivo, human
Conditions: female, human, plasma, Group B2 Period 2: SYM-1219 2 grams on Day 1, EE2/NET on Day 2; read-out: NET AUC0-∞, Geometric LSMeans

{"columns": ["compound", "AUC(0-inf) (ng·h/mL)"],
 "data": [
  ["C#C[C@]1(O)CC[C@H]2[C@@H]3CCC4=CC(=O)CC[C@@H]4[C@H]3CC[C@@]21C [NET, norethindrone]", 60]
]}

###

Experiment: Effect of a single 2 g dose of SYM-1219 on the plasma pharmacokinetics of EE2 and NET in healthy female subjects
Type: in vivo, human
Settings: female, human, plasma, Group B2 Period 1: EE2/NET alone; read-out: EE2 AUC0-t, Geometric Least Squares (LS) Means

{"columns": ["mol.smiles", "AUC(0-t)"],
 "data": [
  ["C#C[C@]1(O)CC[C@H]2[C@@H]3CCc4cc(O)ccc4[C@H]3CC[C@@]21C", "0.65 ng·h/mL"]
]}

###

Assay: Effect of a single 2 g dose of SYM-1219 on the plasma pharmacokinetics of EE2 and NET in healthy female subjects
Assay type: in vivo, human
Conditions: female, human, plasma, Group B2 Period 2: SYM-1219 2 grams on Day 1, EE2/NET on Day 2; read-out: NET Cmax, Mean
Description: Methods: Fifty-four (54) healthy female subjects, ages 18-65, received EE2/NET alone and in combination, where SYM-1219+EE2/NET were co-administered on Day 1 (Group B1; N=27) or SYM-1219 on Day 1 and EE2/NET on Day 2 (Group B2; N=27). Serial blood samples were drawn to measure plasma concentrations of EE2/NET. […] Safety was evaluated by recording of adverse events, vital signs, ECGs and standard laboratory tests.

{"columns": ["compound", "Cmax"],
 "data": [
  ["C#C[C@]1(O)CC[C@H]2[C@@H]3CCC4=CC(=O)CC[C@@H]4[C@H]3CC[C@@]21C [NET, norethindrone]", "10.7 ng/mL"]
]}

###

Assay: Single oral dose pharmacokinetics (plasma and urine) of SYM-1219 microgranule formulation in fasted healthy female subjects
Conditions: female, human, plasma, po, 1 gram, AUC0-∞, Mean; 1 gram single oral dose; fasted; N = 14
readout.kind: AUC(0-inf) (µg·h/mL)

{"columns": ["compound", "unit.descriptor", "quantitative.readout"],
 "data": [
  ["Cc1ncc([N+](=O)[O-])n1CC(C)O (stereo not shown)", "µg·h/mL", 619]
]}

###

Experiment: Effect of a single 2 g dose of SYM-1219 on the plasma pharmacokinetics of EE2 and NET in healthy female subjects
Assay type: in vivo, human
Settings: female, human, plasma, Group B1 Period 1: EE2/NET alone; read-out: NET AUC0-t, Geometric LSMeans

{"columns": ["mol.smiles", "AUC(0-t) [ng·h/mL]"],
 "data": [
  ["C#C[C@]1(O)CC[C@H]2[C@@H]3CCC4=CC(=O)CC[C@@H]4[C@H]3CC[C@@]21C", 42.2]
]}

###

Assay: Effect of a single 2 g dose of SYM-1219 on the plasma pharmacokinetics of EE2 and NET in healthy female subjects
Type: in vivo, human
Details: female, human, plasma, Group B2 Period 2: SYM-1219 2 grams on Day 1, EE2/NET on Day 2; read-out: EE2 AUC0-∞, Mean
readout.kind: AUC(0-inf) (ng·h/mL)

{"columns": ["mol.smiles", "readout.kind", "unit.descriptor", "quantitative.readout"],
 "data": [
  ["C#C[C@]1(O)CC[C@H]2[C@@H]3CCc4cc(O)ccc4[C@H]3CC[C@@]21C", "AUC(0-inf)", "ng·h/mL", 0.937]
]}
